- Tested on: HL-60
- assay.method.text: NCI tumour cell line growth inhibition, 48 h
Calls of active or inactive are those of the source. Rule as the data show it: active = GI50 up to about 1.1 µM and inactive = higher.
// GI50 lookup, one value per entry

1. O=C1C=CC(=O)c2cc(Sc3ccccc3)c(=O)c(Sc3ccccc3)cc21; 10.6 µM (inactive)
2. COP(=O)(OC)C(O)CC(C)C (stereo unspecified); > 100 µM (inactive)
3. N#CC1CC2(C(=O)C1=O)c1ccccc1-c1ccccc12 (stereo unspecified); > 100 µM (inactive)

Lookup: Query: GI50; subject: C=C1C(=O)OC2C1C(=O)C/C(C)=C/CCC1(C)OC21 (stereo unspecified)
Found: 1.33 µM (inactive)

Lookup: Query: GI50; subject: "COc1cccc(C2C(C(=O)Nc3cc(=O)n(C)c(=O)n3C)=C(C)NC(C)=C2C(=O)Nc2cc(=O)n(C)c(=O)n2C)c1O"
Found: > 100 µM (inactive)

Lookup: Query: GI50; subject: "O=S(=O)(OI(OI(OS(=O)(=O)C(F)(F)F)c1ccccc1)c1ccccc1)C(F)(F)F"
Found: 4.33 µM (inactive)

Lookup: Query: GI50; subject: [N-]=[N+]=NC(c1cn(C2CC(O)C(CO)O2)c(=O)[nH]c1=O)C(Br)Br (stereo unspecified)
Found: > 100 µM (inactive)

Lookup: Query: GI50; subject: "CCCc1cn2c(/C=N/N=C(N)N)c(-c3c(OC)ccc(OC)c3[N+](=O)[O-])nc2s1"
Found: 7.46 µM (inactive)

---

- System: EKVX
- assay.method.text: NCI tumour cell line growth inhibition, 48 h
Calls of active or inactive are those of the source. No stated cut-off is given here; in the data, active = GI50 up to about 1.1 µM and inactive = higher.
Thanks in advance; please answer with one of these: YES for active, NO for inactive

1. O=C(OCCN1CCCCC1)C(c1ccccc1)C1(O)CCSCC1 (stereo not given); NO

Lookup: Which outcome did this test record for the compound NC(=O)CC(Nc1ncc2c(n1)-c1ccccc1OC2)C(=O)O (stereo not given) ?
Found: NO

Lookup: Which outcome did this test record for the compound "Cc1nc(/C(=N\n2cnnc2)Nc2ccc(Br)cc2)no1" ?
Found: NO

Lookup: Which outcome did this test record for the compound O=C1NCC2(CCN(CC3COc4ccccc4O3)CC2)N1c1ccccc1 (stereo not given) ?
Found: NO

Lookup: Which outcome did this test record for the compound "COc1ccc(-c2cc(-c3ccccc3)c3c(n2)-c2ccccc2NC(=O)C3)cc1" ?
Found: NO

Lookup: Which outcome did this test record for the compound "N#CCC(=O)N1CCCCCCC1" ?
Found: NO

Lookup: Which outcome did this test record for the compound "COc1cc(C2C(C(=O)Nc3ccccc3)=C(C)NC(C)=C2C(=O)Nc2ccccc2)ccc1O" ?
Found: NO

Lookup: Which outcome did this test record for the compound "C[n+]1c(-c2ccc(/C=N/NC(=S)N/N=C/c3ccc(-c4cn5ccsc5[n+]4C)cc3)cc2)cn2ccsc21" ?
Found: NO

Lookup: Which outcome did this test record for the compound COC1=CC(C2c3cc4c(cc3[C@@H](Nc3ccc(F)cc3)C3COC(=O)[C@H]23)OCO4)=CC(=O)C1=O (stereo not given in full) ?
Found: NO

---

// GI50 lookup, one value per entry
- Tested on: 786-0
- assay.method.text: NCI tumour cell line growth inhibition, 48 h
Activity calls are given as the source filed them. No stated cut-off is given here; in the data, active = GI50 up to about 1.1 µM and inactive = higher.

Lookup: Query: GI50; subject: "COc1ccc(/C=N/N=C(\N)NO)cc1O"
Found: 18.5 µM (inactive)

---

- Test system: LOX IMVI
- assay.method.text: NCI tumour cell line growth inhibition, 48 h
Calls of active or inactive are those of the source. Rule as the data show it: active = GI50 up to about 1.1 µM and inactive = higher. Peptide text beside a SMILES is read from it. * marks the point of attachment. Boc = CC(C)(C)OC(=O)*
// GI50 lookup, one value per entry

Record excerpt, results attached:
1. O=C(COC(=O)c1cccc2c(=O)c3ccccc3[nH]c12)Nc1ccc(Cl)cc1; 23.2 µM (inactive)
2. O=C(O)c1cc(Cl)cc(Cc2cc(Cl)cc(C(=O)O)c2O)c1O; > 100 µM (inactive)
3. C[C@H]1ON2CCC[C@@H]2[C@@H]1C(=O)N1C2CC3CCC2(CS1(=O)=O)C3(C)C (some centres not stated); > 100 µM (inactive)
4. CN(C)c1ncc(-c2c[nH]c3ccccc23)nc1-c1c[nH]c2ccccc12; 2.51 µM (inactive)

Lookup: Query: GI50; subject: COC(=O)C(Cc1ccccc1)NC(=O)C(CS)NC(=O)OC(C)(C)C (stereo not drawn) (Boc-Cys-Phe-OMe; configuration not given here)
Found: 69.2 µM (inactive)

Lookup: Query: GI50; subject: "CCCCCCCCCCCCNC(=O)NCC(OCC)OCC"
Found: > 10 µM (inactive)

Lookup: Query: GI50; subject: CCCCCCCCCCCCCCCCCCOCC(CCP(=O)(CP(=O)(O)O)Oc1ccccc1)OCCCCCCCCCCCCCCCCCC (configuration not stated)
Found: > 100 µM (inactive)

Lookup: Query: GI50; subject: "C=CCN(c1cc(OC)c(NC(C)=O)cc1[N+](=O)[O-])S(C)(=O)=O"
Found: > 100 µM (inactive)

Lookup: Query: GI50; subject: CCOP(=O)(O)CC1OC(CO)C(O)C1O (configuration not stated)
Found: > 100 µM (inactive)

Lookup: Query: GI50; subject: CCC(C)N1CN(c2ccccc2)C2(CCN(CC3COc4ccccc4O3)CC2)C1=O (configuration not stated)
Found: 23.4 µM (inactive)

Lookup: Query: GI50; subject: "O=S(=O)(c1ccc(I)cc1)N(c1ccccc1)S(=O)(=O)C(F)(F)C(F)(F)C(F)(F)C(F)(F)F"
Found: 96.2 µM (inactive)

---

- Tested on: SK-OV-3
- assay.method.text: NCI tumour cell line growth inhibition, 48 h
The source made the active and inactive calls. No stated cut-off is given here; in the data, active = GI50 up to about 1.1 µM and inactive = higher.
// GI50 lookup, one value per entry

1. CCOC(=O)c1ccc(/N=C/C=C(\Nc2ccc(C(=O)OCC)cc2)C23CC4CC(CC(C4)C2)C3)cc1; > 100 µM (inactive)
2. COC(=O)[C@]1(c2cc3ccccc3[nH]2)CC2CNC1C1OC(C)(C)OC21 (some centres not stated); > 100 µM (inactive)
3. CCCCSCCC(N)P(=O)(O)O (configuration not stated); > 100 µM (inactive)
4. COc1c(C(=O)c2ccc([N+](=O)[O-])cc2)cc(C(C)(C)C)cc1C(C)(C)C; > 100 µM (inactive)

Turning now to a further molecule:
Lookup: # returns recorded GI50 (system: SK-OV-3) for "c1ccc([P+](Cc2csnn2)(c2ccccc2)c2ccccc2)cc1"
Found: > 100 µM (inactive)

---

- Tested on: KM-20L2
- assay.method.text: NCI tumour cell line growth inhibition, 48 h
The source made the active and inactive calls. Cut-off read from the data, not from the text of the source: active = GI50 up to about 1.1 µM and inactive = higher.
Thanks in advance; please answer with one of these: 1 (yes) for active, 0 (no) for inactive

// below: answered compounds
1. Cc1ccc(S(=O)(=O)NC2(C=O)CCC(C(C)(C)C)CC2)cc1 (centres undefined); 0 (no)
2. NCCCCCC(CCN)SCC1OC(n2cnc3c(N)ncnc32)C(O)C1O (centres undefined); 0 (no)
3. C=CCC1(CC)C(=O)NC(=O)NC1=O; 0 (no)
4. CC(/C(=N/NC(=O)C(N)=O)c1c(Cl)ccc(Cl)c1O)C1(O)C(=O)Nc2ccccc21 (centres undefined); 0 (no)
5. C[C@@H]1OC(=O)N2CCCC(=C3SCCCS3)C12 (some centres undefined); 0 (no)

Would you kindly look at the next entry?
Lookup: Which outcome did this test record for the compound "O=C(NC12CC3CC(CC(F)(C3)C1)C2)c1ccccc1" ?
Found: 0 (no)

---

- Tested on: DLD-1
- assay.method.text: NCI tumour cell line growth inhibition, 48 h
The source made the active and inactive calls. Cut-off read from the data, not from the text of the source: active = GI50 up to about 1.1 µM and inactive = higher.
Thanks in advance; please answer with one of these: active, inactive

Lookup: Which outcome did this test record for the compound "COc1ccc(Nc2nc3c(N)cc(C(F)(F)F)cc3nc2-c2ccccc2)cc1" ?
Found: inactive

---

// GI50 lookup, one value per entry
- Test system: SNB-75
- assay.method.text: NCI tumour cell line growth inhibition, 48 h
The source made the active and inactive calls. No stated cut-off is given here; in the data, active = GI50 up to about 1.1 µM and inactive = higher.

1. CN1c2ccccc2C(=O)Nc2cnc(Cl)nc21; 39.2 µM (inactive)
2. NC1=NCC(c2ccccn2)C1c1ccc(F)cc1 (configuration not stated); > 100 µM (inactive)
3. S=c1[nH]n2c(CCCCCCCCc3nnc4sc(=S)[nH]n34)nnc2s1; > 100 µM (inactive)
4. C[Si](C)(c1ccccc1)C1CC(=O)CC(=O)C1; > 100 µM (inactive)
5. COC(=O)/C(C#N)=C(/NCCN)Nc1ccccc1; 57.3 µM (inactive)
6. C=C1C2=C(CCCC2)C(=O)OC12CCCCC2; 23.8 µM (inactive)
7. CC1(C)OC[C@@H]([C@H](C=O)OCc2ccccc2)O1; > 100 µM (inactive)
8. COc1nc2c(c(=O)[nH]1)N=C(c1ccc([N+](=O)[O-])cc1)CC(c1ccccc1)N2 (configuration not stated); 32.8 µM (inactive)
9. Cc1nc(N)sc1/N=N/c1ccccc1Br; 10.3 µM (inactive)
10. CCC1=[N+](CC)CCN1CC; > 100 µM (inactive)

Lookup: Query: GI50; subject: COP(=O)(OC)C(O)CC(C)C (configuration not stated)
Found: > 100 µM (inactive)

Lookup: Query: GI50; subject: "Cc1c(C)c(S(=O)(=O)N(CCCN)OCCCN)c(C)c2c1OC(C)(C)C2"
Found: 17.3 µM (inactive)
